Experimental Target: NaV1.7 (Homo sapiens)
Construct: expressed in transfected cells; tetracycline-inducible, kept under hygromycin and blasticidin selection
Assay Method Text: Internal block: intracellular inhibition of NaV1.7 current, whole cell patch clamp
Format: cell-based
Details: 3 μM test concentration, compound in internal solution
Reported inhibition at 3 µM values are given for each entry in this list.

Please review the entries below; each comes with its answer.
{"Compound": "CCOC(=O)c1cccc(F)c1NC(=O)C[P+]1(Cc2ccccc2)CCCCC1", "Experimental Target": "NaV1.7 (Homo sapiens)", "inhibition at 3 µM": "70 to 90%"}
{"Compound": "COC(=O)c1cccc(C)c1NC(=O)C[P+](c1ccccc1)(c1ccccc1)c1ccccc1", "Experimental Target": "NaV1.7 (Homo sapiens)", "inhibition at 3 µM": "< 40%"}
{"Compound": "CCOC(=O)c1cccc(C)c1NC(=O)C[P+]1(Cc2ccccc2)CCCCC1", "Experimental Target": "NaV1.7 (Homo sapiens)", "inhibition at 3 µM": "> 90%"}
{"Compound": "Cc1cccc(C(=O)OC(C)(C)C)c1NC(=O)C[P+]1(Cc2ccccc2)CCCCC1", "Experimental Target": "NaV1.7 (Homo sapiens)", "inhibition at 3 µM": "40 to 70%"}
{"Compound": "CCC(C(=O)Nc1c(C#N)cccc1C(=O)OC)[P+]1(Cc2ccccc2)CCCCC1 (stereo not drawn)", "Experimental Target": "NaV1.7 (Homo sapiens)", "inhibition at 3 µM": "70 to 90%"}

Input: // lookup inhibition at 3 µM for `CC[P+](CC)(CC)CC(=O)Nc1c(C)cccc1C(=O)OC.[Br-]`
Output: < 40%

Input: Next compound: `CCCC[P+](CCCC)(CCCC)CC(=O)Nc1c(C)cccc1C(=O)OC.[Br-]`
Output: 70 to 90%

Input: Next compound: `CCOC(=O)c1cccc(Cl)c1NC(=O)C[P+]1(Cc2ccccc2)CCCCC1`
Output: > 90%

Input: Next compound: `COC(=O)c1cccc(C)c1NC(=O)C[P+]1(Cc2ccccc2)CCCCC1`
Output: 70 to 90%

Input: Next compound: CCC(C(=O)Nc1c(C)cccc1C(=O)OC)[P+]1(Cc2ccccc2)CCCCC1 (stereo not drawn)
Output: 70 to 90%

Input: Next compound: `CCOC(=O)c1cccc(CC)c1NC(=O)C[P+]1(Cc2ccccc2)CCCCC1`
Output: 70 to 90%

Input: Next compound: `CCOC(=O)c1cccc(OCC)c1NC(=O)C[P+]1(Cc2ccccc2)CCCCC1`
Output: > 90%

###

Experimental Target: NaV1.7 (Homo sapiens, UniProt Q15858)
Construct: expressed in transfected cells; tetracycline-inducible, kept under hygromycin and blasticidin selection
Sequence (Q15858 whole entry): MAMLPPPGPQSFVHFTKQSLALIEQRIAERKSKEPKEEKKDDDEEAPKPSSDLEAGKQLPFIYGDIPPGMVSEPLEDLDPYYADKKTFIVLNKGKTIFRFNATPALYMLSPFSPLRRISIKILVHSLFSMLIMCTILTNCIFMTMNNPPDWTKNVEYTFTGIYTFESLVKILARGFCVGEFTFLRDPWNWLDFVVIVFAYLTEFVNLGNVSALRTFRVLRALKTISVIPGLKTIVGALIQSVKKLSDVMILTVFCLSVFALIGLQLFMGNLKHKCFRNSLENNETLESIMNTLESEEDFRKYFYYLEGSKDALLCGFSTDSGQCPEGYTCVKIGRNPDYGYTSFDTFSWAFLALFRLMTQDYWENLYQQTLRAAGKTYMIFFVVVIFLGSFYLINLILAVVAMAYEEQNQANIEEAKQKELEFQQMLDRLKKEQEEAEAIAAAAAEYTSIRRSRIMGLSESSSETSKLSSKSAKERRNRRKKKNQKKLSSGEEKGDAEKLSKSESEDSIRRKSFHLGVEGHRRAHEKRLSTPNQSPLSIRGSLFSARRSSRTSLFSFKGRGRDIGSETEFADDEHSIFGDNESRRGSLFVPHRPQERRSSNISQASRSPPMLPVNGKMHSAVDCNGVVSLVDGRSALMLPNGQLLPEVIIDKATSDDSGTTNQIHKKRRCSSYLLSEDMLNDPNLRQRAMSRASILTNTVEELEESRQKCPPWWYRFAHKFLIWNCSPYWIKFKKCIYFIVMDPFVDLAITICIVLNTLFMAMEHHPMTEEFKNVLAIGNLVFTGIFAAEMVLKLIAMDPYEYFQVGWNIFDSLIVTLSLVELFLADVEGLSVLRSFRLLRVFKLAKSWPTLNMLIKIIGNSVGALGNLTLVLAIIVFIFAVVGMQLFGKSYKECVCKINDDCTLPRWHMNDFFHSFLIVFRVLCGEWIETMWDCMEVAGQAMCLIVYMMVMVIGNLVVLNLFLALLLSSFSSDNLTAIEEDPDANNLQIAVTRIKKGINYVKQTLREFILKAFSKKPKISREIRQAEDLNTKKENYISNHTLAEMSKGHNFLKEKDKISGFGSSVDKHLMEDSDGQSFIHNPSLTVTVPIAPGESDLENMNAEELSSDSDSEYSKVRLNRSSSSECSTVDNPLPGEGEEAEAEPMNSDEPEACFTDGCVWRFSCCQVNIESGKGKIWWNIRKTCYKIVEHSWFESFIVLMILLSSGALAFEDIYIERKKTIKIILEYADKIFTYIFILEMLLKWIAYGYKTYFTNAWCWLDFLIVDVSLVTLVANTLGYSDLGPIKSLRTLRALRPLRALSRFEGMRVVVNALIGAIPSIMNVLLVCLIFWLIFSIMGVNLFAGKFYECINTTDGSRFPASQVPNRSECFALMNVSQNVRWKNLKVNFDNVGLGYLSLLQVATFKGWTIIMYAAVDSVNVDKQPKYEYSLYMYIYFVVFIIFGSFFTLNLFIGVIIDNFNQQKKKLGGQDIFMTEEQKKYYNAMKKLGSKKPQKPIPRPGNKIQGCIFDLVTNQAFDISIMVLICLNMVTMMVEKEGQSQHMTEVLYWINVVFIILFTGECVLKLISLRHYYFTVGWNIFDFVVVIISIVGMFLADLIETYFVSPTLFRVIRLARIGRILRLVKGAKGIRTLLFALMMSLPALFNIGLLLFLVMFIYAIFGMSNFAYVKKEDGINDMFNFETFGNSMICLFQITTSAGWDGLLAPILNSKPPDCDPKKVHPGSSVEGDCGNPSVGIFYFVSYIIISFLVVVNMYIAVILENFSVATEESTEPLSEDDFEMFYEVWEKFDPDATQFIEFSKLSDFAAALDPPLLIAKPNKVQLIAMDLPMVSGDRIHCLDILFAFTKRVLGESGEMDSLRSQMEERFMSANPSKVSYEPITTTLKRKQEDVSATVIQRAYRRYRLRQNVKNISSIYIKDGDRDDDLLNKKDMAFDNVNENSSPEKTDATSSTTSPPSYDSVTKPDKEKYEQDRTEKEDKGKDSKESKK
Assay Method Text: External block: extracellular inhibition of NaV1.7 current, whole cell patch clamp
Format: cell-based
Details: 10 μM test concentration, compound in external solution
Reported inhibition at 10 µM values are given for each entry in this list.

Please review the entries below; each comes with its answer.
{"Compound Structure String": "CCOC(=O)c1cccc(CC)c1NC(=O)C[P+]1(Cc2ccccc2)CCCCC1", "Result Type": "inhibition at 10 µM", "Result": "40 to 70%"}
{"Compound Structure String": "Cc1cccc(C)c1NC(=O)C[P+]1(Cc2ccccc2)CCCCC1.[Br-]", "Result Type": "inhibition at 10 µM", "Result": "40 to 70%"}
{"Compound Structure String": "Cc1cccc(C)c1NC(=O)C[P+]1(Cc2ccccc2)CCCCCC1", "Result Type": "inhibition at 10 µM", "Result": "40 to 70%"}

Now examine the next entry.
Input: // lookup inhibition at 10 µM for `Cc1cccc(C)c1NC(=O)C[P+]1(Cc2ccccc2)CCCC1`
Output: < 40%

Taken from patent US11701370B2.
